Test: NCI Yeast Anticancer Drug Screen. Data for the mec2-1 strain (AID 157)
Conditions: S. cerevisiae mec2-1 strain, at 50.0 µM, active compounds read high
About 79,000 compounds went through this panel and 15% of them were active in at least one assay; those are over-represented in the sample as a whole.
# maps each entry to its growth inhibition
readoutType: growth inhibition (%)

>>> valueobserved("O=[N+]([O-])c1cc2no[n+]([O-])c2cc1N1CCOCC1")
99.3
>>> valueobserved("C[C@@H]1OC2(O)[C@H]3CCCN3S(=O)(=O)CCN2C1=O (some centres not stated)")
-14.8
>>> valueobserved("CN=C(N/N=C/c1ccccc1)N(C)C")
11.1
>>> valueobserved("Cc1ccc(S(=O)(=O)OC2CCCC2OS(=O)(=O)c2ccc(C)cc2)cc1 (configuration not stated)")
14.5
>>> valueobserved("CC(=O)/C(N=Nc1ccccc1SCCC#N)=C(\\C)O")
-2.55
>>> valueobserved("N#CC1(C2CC(=O)N(c3ccccc3)C2=O)CCCCC1=O (configuration not stated)")
-21.7
>>> valueobserved("Cc1ccc(N=C(Nc2ccc(C)cc2)C(c2ccccc2)c2ccccc2)cc1")
-1.85
>>> valueobserved("CC1=C(C(=O)NNC(=O)c2ccccc2O)CC(C(=O)NNC(=O)c2ccccc2O)=C(C)N1")
40.5
>>> valueobserved("NNC(=O)CSCC(=O)NN")
-2.05
>>> valueobserved("CN(C)c1ccc(C=C(C(=O)c2ccccc2)C(=O)c2ccccc2)cc1")
1.9
>>> valueobserved("CC1=CC(OC2CCCCO2)CC(C)(C)C1 (configuration not stated)")
-3
>>> valueobserved("CC(O)C(O)C(O)C(O)C#N (configuration not stated)")
18
